Target: Dihydrofolate reductase (Homo sapiens)
Sequence (P00374 whole entry): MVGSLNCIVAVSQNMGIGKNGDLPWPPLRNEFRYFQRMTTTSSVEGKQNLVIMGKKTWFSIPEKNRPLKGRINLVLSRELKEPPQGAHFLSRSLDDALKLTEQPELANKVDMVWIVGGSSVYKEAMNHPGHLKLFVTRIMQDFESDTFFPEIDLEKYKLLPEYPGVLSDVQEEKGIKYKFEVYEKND
Quick reference for IC50 among some compounds
measured.property: IC50 (µM)

[[record]]
compound = "CCOP(=O)(O)CCC(NC(=O)c1ccc(NCC2CNc3nc(N)nc(O)c3C2)cc1)C(=O)O (centres undefined)"
measured_property = "IC50"
display_unit = "µM"
value_reported = 950

[[record]]
compound = "CCOP(=O)(O)CCC(NC(=O)c1ccc(NCc2cnc3nc(N)[nH]c(=O)c3c2)cc1)C(=O)O (centres undefined)"
measured_property = "IC50"
display_unit = "µM"
value_reported = 1.3

[[record]]
compound = "Nc1nc(O)c2c(n1)NCC(CNc1ccc(C(=O)NC(CCP(=O)(O)O)C(=O)O)cc1)C2 (centres undefined)"
measured_property = "IC50"
display_unit = "µM"
value_reported = 220

[[record]]
compound = "Nc1nc(O)c2c(n1)NCC(CNc1ccc(C(=O)NC(CCS(=O)(=O)O)C(=O)O)cc1)C2 (centres undefined)"
measured_property = "IC50"
display_unit = "µM"
value_reported = 12


---

Quick reference for IC50 among some molecules
Biological target: Thymidylate synthase (Homo sapiens, UniProt P04818)
Sequence (P04818 whole entry): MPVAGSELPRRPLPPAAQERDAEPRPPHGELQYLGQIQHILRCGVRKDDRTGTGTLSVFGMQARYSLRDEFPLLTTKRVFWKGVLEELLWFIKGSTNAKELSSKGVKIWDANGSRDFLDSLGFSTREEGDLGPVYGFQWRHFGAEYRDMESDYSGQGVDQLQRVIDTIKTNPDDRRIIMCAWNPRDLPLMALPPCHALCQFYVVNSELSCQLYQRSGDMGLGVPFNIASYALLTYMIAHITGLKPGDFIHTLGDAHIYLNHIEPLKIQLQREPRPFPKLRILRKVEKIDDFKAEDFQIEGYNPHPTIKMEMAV
measured.property: IC50 (µM)

[[record]]
molecule = "Nc1nc(O)c2c(n1)NCC(CNc1ccc(C(=O)NC(CCP(=O)(O)O)C(=O)O)cc1)C2 (stereo not given)"
value_operator = "="
value_reported = 4200

[[record]]
molecule = "CCOP(=O)(O)CCC(NC(=O)c1ccc(NCc2cnc3nc(N)[nH]c(=O)c3c2)cc1)C(=O)O (stereo not given)"
value_operator = "="
value_reported = 100

[[record]]
molecule = "Nc1nc2ncc(CNc3ccc(C(=O)NC(CCP(=O)(O)O)C(=O)O)cc3)cc2c(=O)[nH]1 (stereo not given)"
value_operator = "="
value_reported = 300

[[record]]
molecule = "CCOP(=O)(O)CCC(NC(=O)c1ccc(NCC2CNc3nc(N)nc(O)c3C2)cc1)C(=O)O (stereo not given)"
value_operator = ">"
value_reported = 5000

[[record]]
molecule = "Nc1nc(O)c2c(n1)NCC(CNc1ccc(C(=O)NC(CCS(=O)(=O)O)C(=O)O)cc1)C2 (stereo not given)"
value_operator = "="
value_reported = 2100


---

Target: Folylpolyglutamate synthase, mitochondrial (Mus musculus, UniProt P48760)
Sequence (P48760 whole entry): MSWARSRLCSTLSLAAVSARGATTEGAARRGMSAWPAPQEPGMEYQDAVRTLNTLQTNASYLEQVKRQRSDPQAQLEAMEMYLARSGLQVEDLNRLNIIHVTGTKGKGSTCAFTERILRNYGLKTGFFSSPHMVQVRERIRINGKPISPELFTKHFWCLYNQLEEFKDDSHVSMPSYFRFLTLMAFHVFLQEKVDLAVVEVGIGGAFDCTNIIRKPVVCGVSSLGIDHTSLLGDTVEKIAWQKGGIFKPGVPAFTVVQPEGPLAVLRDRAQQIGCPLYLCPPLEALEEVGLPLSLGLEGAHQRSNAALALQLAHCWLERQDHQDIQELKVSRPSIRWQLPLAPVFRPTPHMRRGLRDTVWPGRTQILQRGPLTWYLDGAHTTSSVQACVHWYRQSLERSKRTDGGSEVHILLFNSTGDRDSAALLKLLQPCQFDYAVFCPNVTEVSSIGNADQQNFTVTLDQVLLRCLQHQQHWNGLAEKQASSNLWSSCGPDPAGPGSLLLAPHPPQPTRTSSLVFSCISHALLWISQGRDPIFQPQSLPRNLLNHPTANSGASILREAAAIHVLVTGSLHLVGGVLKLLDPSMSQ
Quick reference for Ki among some molecules
measured.property: Ki (µM)

[[record]]
molecule = "CCOP(=O)(O)CCC(NC(=O)c1ccc(NCc2cnc3nc(N)[nH]c(=O)c3c2)cc1)C(=O)O (centres undefined)"
assayed_target = "Folylpolyglutamate synthase, mitochondrial (Mus musculus, UniProt P48760)"
display_unit = "µM"
value_reported = 2000

[[record]]
molecule = "Nc1nc(O)c2c(n1)NCC(CNc1ccc(C(=O)NC(CCP(=O)(O)O)C(=O)O)cc1)C2 (centres undefined)"
assayed_target = "Folylpolyglutamate synthase, mitochondrial (Mus musculus, UniProt P48760)"
display_unit = "µM"
value_reported = 3.2

[[record]]
molecule = "Nc1nc(O)c2c(n1)NCC(CNc1ccc(C(=O)NC(CCS(=O)(=O)O)C(=O)O)cc1)C2 (centres undefined)"
assayed_target = "Folylpolyglutamate synthase, mitochondrial (Mus musculus, UniProt P48760)"
display_unit = "µM"
value_reported = 22

[[record]]
molecule = "CCOP(=O)(O)CCC(NC(=O)c1ccc(NCC2CNc3nc(N)nc(O)c3C2)cc1)C(=O)O (centres undefined)"
assayed_target = "Folylpolyglutamate synthase, mitochondrial (Mus musculus, UniProt P48760)"
display_unit = "µM"
value_reported = 115

